# system name: Albumin (Bos taurus)
# assay overview: bovine serum albumin binders on microarray, profiling panel, artefact control for SMM control protein annotation, biochemical, small-molecule microarray, Alexa647 label, 635/667 nm fluorescence (AID 1118);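 also: score merges 667 nm emission intensity and signal-to-noise per printed compound spot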
# run parameters: BSA-A647 binding, fluorescence 635 nm, higher = more signal
measured attribute: composite z-score
Would you mind answering with just the numeric figure?

Answered cases to consult:
molecule: COCC(=C=CC[C@H](O)c1ccc(OCCO)cc1)C[C@H](O)COCc1ccccc1
composite z-score: 0.589
--
molecule: CCOC(=O)C1=CC[C@@H](c2ccccc2)N(S(=O)(=O)c2ccc(C)cc2)C1
composite z-score: 0.425
--
molecule: CC1CC/C=C\[C@H]2OC34C=CCN(c5ccc6ccccc6c5)C(=O)[C@H]3N(C(CO)C(C)C)C(=O)[C@@H]4C2C(=O)O1 (some centres undefined)
composite z-score: 0.912

The molecule listed as O=c1cccc(-c2cccc(Cl)c2)o1 has a reported composite z-score of 0.271

The molecule listed as CCOC(=O)[C@@H]1[C@@H]2C(=O)N(CC)C(=O)[C@@H]2C[C@@H]1Sc1ccccc1 has a reported composite z-score of 0.663

The molecule listed as O=C1O[C@@H](c2ccccc2)[C@@H](c2ccccc2)N2[C@@H](c3ccc(O)cc3)[C@]3(C(=O)Nc4ccccc43)[C@@H](C(=O)Nc3nc4ccccc4s3)[C@H]12 has a reported composite z-score of 0.625

The molecule listed as COc1ccc([Si](C)(C)[C@H]2[C@H](CCO)O[C@@]3(C(=O)N(Cc4cccc(N5CCCCC5=O)c4)c4ccccc43)[C@@H]2C)cc1 has a reported composite z-score of 0.378

The molecule listed as CO[C@H]1O[C@H](CO)[C@@H](OC(=O)Nc2ccccc2-c2ccccc2)[C@H](OC(=O)Nc2ccc3c(c2)OCO3)[C@@H]1OC(=O)Nc1ccc2c(c1)OCO2 has a reported composite z-score of 0.508

The molecule listed as O=C1O[C@@H](c2ccccc2)[C@@H](c2ccccc2)N2[C@@H](c3ccccc3OCCO)[C@]3(C(=O)Nc4ccc(C#CC5=CCCCC5)cc43)[C@@H](C(=O)NC[C@H](O)c3ccccc3)[C@H]12 has a reported composite z-score of 0.402

The molecule listed as COc1ccc(C(O)C2C=CC3C(=O)N(c4ccccc4)C(=O)C3N2Nc2ccc(C#N)cc2)c2ccccc12 (centres undefined) has a reported composite z-score of 1.07

The molecule listed as COc1ccc([Si](C)(C)[C@H]2[C@H](CCn3cc([C@H](O)c4ccccc4)nn3)O[C@@]3(C(=O)N(Cc4ccc(N5CCC5=O)cc4)c4ccccc43)[C@@H]2C)cc1 has a reported composite z-score of 0.0383

The molecule listed as COc1ccc([Si](C)(C)[C@@H]2[C@@H](CCO)O[C@]3(C(=O)N(Cc4cccc(N5C(=O)c6cccc7cccc5c67)c4)c4ccccc43)[C@H]2C)cc1 has a reported composite z-score of 0.219

The molecule listed as C=C(C(=O)CC[C@H](OC(=O)c1cccnc1)c1ccc(CO)o1)C(C)C has a reported composite z-score of 0.0812

The molecule listed as NCCCCCCNC(=O)[C@H]1C[C@H]2C(=O)N[C@@H](Cc3ccccc3)C(=O)N2[C@H]1c1ccc(O)cc1 has a reported composite z-score of 0.855
